Entries annotated with measured Inhibition of binding (%)
- target-of-assay: T1, hCMV gH, gL, UL128, UL130 and UL131A co-expressed in HEK293T cells (human cytomegalovirus, UniProt P12824 24-743; P16832 31-278; P16837 1-171; P16772 1-214)
- T1 construct: whole, on cells; also called gH + gL + UL128 + UL130 + UL131A; gH/gL/UL128-130 complex
- test-method-notes: cell cross-competition, 20x excess; competitor 1F11-biotin
In your response, put the unit directly after the numeric value.

Lookup: Which Inhibition of binding (%) value belongs to 7I13 (antibody, V domains shown, human IgG mAb) VH: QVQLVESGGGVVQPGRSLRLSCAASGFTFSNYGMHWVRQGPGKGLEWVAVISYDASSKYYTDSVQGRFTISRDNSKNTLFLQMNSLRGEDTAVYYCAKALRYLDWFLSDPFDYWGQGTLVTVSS VL: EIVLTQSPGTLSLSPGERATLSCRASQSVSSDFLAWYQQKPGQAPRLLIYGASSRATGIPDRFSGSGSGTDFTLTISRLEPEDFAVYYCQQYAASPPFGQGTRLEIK ?
Found: 0%

Lookup: Would you kindly share the measured Inhibition of binding (%) for 2C12 (antibody, V domains shown, human IgG mAb; also called 2C12-biotin) VH: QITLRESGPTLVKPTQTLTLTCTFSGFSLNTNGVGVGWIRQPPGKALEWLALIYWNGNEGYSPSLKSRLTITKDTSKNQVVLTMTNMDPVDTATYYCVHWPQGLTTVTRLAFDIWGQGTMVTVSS VL: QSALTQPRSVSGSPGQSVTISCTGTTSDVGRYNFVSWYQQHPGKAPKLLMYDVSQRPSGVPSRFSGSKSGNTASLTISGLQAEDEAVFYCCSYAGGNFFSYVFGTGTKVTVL ?
Found: 0%

Lookup: Recorded Inhibition of binding (%) of 15D8 (antibody, V domains shown, human IgG mAb; also called 15D8-biotin) VH: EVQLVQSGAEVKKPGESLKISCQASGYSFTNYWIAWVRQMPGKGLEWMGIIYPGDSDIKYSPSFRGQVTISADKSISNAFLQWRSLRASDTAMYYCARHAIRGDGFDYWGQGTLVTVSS VL: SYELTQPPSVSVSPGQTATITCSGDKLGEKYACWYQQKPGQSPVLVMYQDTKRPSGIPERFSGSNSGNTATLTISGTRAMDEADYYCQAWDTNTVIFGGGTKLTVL , please.
Found: 0%
